# Run Description: Antioxidant activity assessed as ferric ion reducing activity using ferric-TPTZ by measuring concentration of compound with antioxidant capacity equivalent to ferrous sulfate at 0.5 mmol/L by FRAP assay
# Type: functional
Property Name: Activity (µM)
One number for each entry, in µM.

These recorded examples may help you get a feel for the data.
>  <Compound>
S=c1oc(-c2ccc3c(c2)OCCO3)nn1CNc1ccccc1Cl

>  <Output Unit>
µM

>  <Activity>
532

$$$$
>  <Compound>
Fc1ccccc1NCn1nc(-c2ccc3c(c2)OCCO3)oc1=S

>  <Output Unit>
µM

>  <Activity>
522

$$$$
>  <Compound>
COc1ccccc1NCn1nc(-c2ccc3c(c2)OCCO3)oc1=S

>  <Output Unit>
µM

>  <Activity>
335

$$$$
>  <Compound>
S=c1oc(-c2ccc3c(c2)OCCO3)nn1CNc1ccc(Cl)c(Cl)c1

>  <Output Unit>
µM

>  <Activity>
763

$$$$
>  <Compound>
S=c1oc(-c2ccc3c(c2)OCCO3)nn1CNc1ccccc1Br

>  <Output Unit>
µM

>  <Activity>
440

$$$$
>  <Compound>
Cc1c(C)c2c(c(C)c1O)CCC(C)(C(=O)O)O2 (stereo unspecified)

>  <Output Unit>
µM

>  <Activity>
294

$$$$

Now look at this entry.
Req: Any idea what its Activity is? The compound is Fc1cc(NCn2nc(-c3ccc4c(c3)OCCO4)oc2=S)cc(F)c1F
Resp: 240
